- target.desc: BCRP (ABCG2) (Homo sapiens)
- experiment.description: Inhibition of BCRP (unknown origin) expressed in HEK293/R2 cells assessed as conformational change by measuring increase in 5D3 shift at 1 uM preincubated for 15 mins followed by FITC mouse antihuman BCRP antibody addition measured after 30 mins by flow cytometry analysis
- Format: cell-based
- recorded.conditions: HEK293/R2 cells expressing BCRP, time 45 min
measured.attribute: inhibition at 0.5 h, 1 µM (%)

| input.smiles | unit | value.observed |
| --- | --- | --- |
| COC(=O)c1cccc(COc2c(-c3ccc(OCCCCc4cn(Cc5ccccc5)nn4)cc3)oc3ccccc3c2=O)c1 | % | 100 |
| COc1cc2c(cc1OC)CN(CCc1ccc(NC(=O)c3cccc4c(=O)c5cccc(OC)c5[nH]c34)cc1)CC2 | % | 100 |

====

- Species on record: Homo sapiens
- experiment.description: Selectivity index, ratio of EC50 for inhibition of P-gp (unknown origin) expressed in LCC6MDR cells assessed as reversal of paclitaxel resistance to EC50 for Inhibition of BCRP (unknown origin) expressed in MCF7/MX100 cells assessed as reversal of topotecan resistance
- Format: cell-based
measured.attribute: Ratio EC50
Enter the number alone.

| input.smiles | measured.attribute | value.observed |
| --- | --- | --- |
| COC(=O)c1cccc(COc2c(-c3ccc(OCCOCCN=[N+]=[N-])cc3)oc3ccccc3c2=O)c1 | Ratio EC50 | 20 |
| COC(=O)c1cccc(COc2c(-c3ccc(OCCOCCn4cc(CCN5C(=O)c6ccccc6C5=O)nn4)cc3)oc3ccccc3c2=O)c1 | Ratio EC50 | 10 |
| COC(=O)c1cccc(COc2c(-c3ccc(OCCOCCOCCn4cc(CCCCOc5ccc(C=O)cc5)nn4)cc3)oc3ccccc3c2=O)c1 | Ratio EC50 | 26 |
| COC(=O)c1cccc(COc2c(-c3ccc(OCCOCCOCCn4cc(CN(CCO)Cc5ccccc5)nn4)cc3)oc3ccccc3c2=O)c1 | Ratio EC50 | 193 |
| COC(=O)c1cccc(COc2c(-c3ccc(OCCOCCn4cc(CN(Cc5ccccc5)Cc5ccccc5)nn4)cc3)oc3ccccc3c2=O)c1 | Ratio EC50 | 34 |

Which Ratio EC50 value is on record for `C#CCCCCOc1ccc(-c2oc3ccccc3c(=O)c2OCc2cccc(C(=O)OC)c2)cc1` ? 24

Which Ratio EC50 value is on record for `COC(=O)c1cccc(COc2c(-c3ccc(OCCOCCn4cc(CN(C)Cc5ccccc5)nn4)cc3)oc3ccccc3c2=O)c1` ? 286

Which Ratio EC50 value is on record for `COC(=O)c1cccc(COc2c(-c3ccc(OCCCCc4cn(CCOCCO)nn4)cc3)oc3ccccc3c2=O)c1` ? 22

====

- target.desc: BCRP (ABCG2) ATPase (Homo sapiens, UniProt Q9UNQ0)
- Sequence (Q9UNQ0 whole entry): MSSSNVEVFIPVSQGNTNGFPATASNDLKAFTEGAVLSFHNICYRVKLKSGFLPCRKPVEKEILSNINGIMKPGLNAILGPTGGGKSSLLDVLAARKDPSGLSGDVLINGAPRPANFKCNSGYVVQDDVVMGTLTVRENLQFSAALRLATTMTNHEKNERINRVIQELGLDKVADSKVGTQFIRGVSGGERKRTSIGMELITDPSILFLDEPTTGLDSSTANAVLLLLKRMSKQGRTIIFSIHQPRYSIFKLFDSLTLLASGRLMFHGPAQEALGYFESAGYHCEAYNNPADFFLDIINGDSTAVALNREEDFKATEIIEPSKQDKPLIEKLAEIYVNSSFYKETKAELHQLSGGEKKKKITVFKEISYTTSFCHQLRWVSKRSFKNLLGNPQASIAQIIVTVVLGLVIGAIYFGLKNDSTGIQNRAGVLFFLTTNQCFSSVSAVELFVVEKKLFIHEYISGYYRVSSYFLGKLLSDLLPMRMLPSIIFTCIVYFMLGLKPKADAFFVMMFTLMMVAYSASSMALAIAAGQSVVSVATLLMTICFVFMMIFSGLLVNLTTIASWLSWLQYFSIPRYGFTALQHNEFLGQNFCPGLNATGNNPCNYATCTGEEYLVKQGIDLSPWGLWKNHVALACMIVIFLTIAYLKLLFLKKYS
- experiment.description: Effect on vanadate sensitive BCRP ATPase activity in human S1-M1-80 cell membranes preincubated for 30 mins followed by ATP addition and measured after 1 hr by colorimetric assay
measured.attribute: activity at 1 h (%)
API: value field is a number in %; no unit string.

Which activity at 1 h value is on record for `COC(=O)c1cccc(COc2c(-c3ccc(OCCCCc4cn(Cc5ccccc5)nn4)cc3)oc3ccccc3c2=O)c1` ? 120

====

# Ratio EC50 per record follows
- Species on record: Homo sapiens
- experiment.description: Selectivity index, ratio of EC50 for inhibition of P-gp (unknown origin) expressed in LCC6MDR cells assessed as reversal of paclitaxel resistance to EC50 for Inhibition of BCRP (unknown origin) expressed in MCF7/MX100 cells assessed as reversal of topotecan resistance
- Assay type: cell-based
Enter the number alone.

| input.smiles | measured.attribute | value.observed |
| --- | --- | --- |
| COC(=O)c1cccc(COc2c(-c3ccc(OCCOCCOCCn4cc(CN(C)Cc5ccccc5)nn4)cc3)oc3ccccc3c2=O)c1 | Ratio EC50 | 29 |
| COC(=O)c1cccc(COc2c(-c3ccc(OCCOCCn4cc(CNc5ccccc5)nn4)cc3)oc3ccccc3c2=O)c1 | Ratio EC50 | 23 |
| COC(=O)c1cccc(COc2c(-c3ccc(OCCCCc4cn(Cc5ccccc5)nn4)cc3)oc3ccccc3c2=O)c1 | Ratio EC50 | 112 |

Which Ratio EC50 value is on record for `COC(=O)c1cccc(COc2c(-c3ccc(OCCOCCOCCN=[N+]=[N-])cc3)oc3ccccc3c2=O)c1` ? 18

====

- target.desc: BCRP (ABCG2) (Homo sapiens, UniProt Q9UNQ0)
- Sequence (Q9UNQ0 whole entry): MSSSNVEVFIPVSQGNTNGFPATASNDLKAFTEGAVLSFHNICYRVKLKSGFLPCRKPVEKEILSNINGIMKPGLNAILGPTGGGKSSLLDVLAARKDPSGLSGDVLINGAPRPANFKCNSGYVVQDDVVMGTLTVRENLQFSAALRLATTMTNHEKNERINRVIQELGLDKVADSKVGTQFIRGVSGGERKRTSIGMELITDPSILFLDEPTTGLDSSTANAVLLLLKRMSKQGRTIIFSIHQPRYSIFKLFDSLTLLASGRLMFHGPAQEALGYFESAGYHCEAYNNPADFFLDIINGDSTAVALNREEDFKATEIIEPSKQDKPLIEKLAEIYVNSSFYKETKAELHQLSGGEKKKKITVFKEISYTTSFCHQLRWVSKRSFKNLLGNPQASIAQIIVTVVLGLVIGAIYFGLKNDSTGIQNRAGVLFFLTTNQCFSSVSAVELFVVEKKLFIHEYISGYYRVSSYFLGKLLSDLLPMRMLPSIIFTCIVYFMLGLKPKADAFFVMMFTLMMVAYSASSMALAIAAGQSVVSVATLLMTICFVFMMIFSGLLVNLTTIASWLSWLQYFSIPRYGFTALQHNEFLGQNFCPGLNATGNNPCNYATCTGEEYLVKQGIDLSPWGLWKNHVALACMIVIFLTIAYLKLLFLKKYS
- experiment.description: Inhibition of BCRP (unknown origin) expressed in HEK293/R2 cells assessed as conformational change by measuring increase in 5D3 shift at 10 uM preincubated for 15 mins followed by FITC mouse antihuman BCRP antibody addition measured after 30 mins by flow cytometry analysis
- Type: cell-based
- recorded.conditions: HEK293/R2 cells expressing BCRP, time 45 min
# inhibition at 0.5 h, 10 µM per record follows
API: value field is a number in %; no unit string.

| input.smiles | target.desc | unit | value.observed |
| --- | --- | --- | --- |
| CCOc1ccc(-c2nc3cc(-c4nc5cc(N6CCN(C)CC6)ccc5[nH]4)ccc3[nH]2)cc1 | BCRP (ABCG2) (Homo sapiens, UniProt Q9UNQ0) | % | 19 |

Here is the next item to consider.
Which inhibition at 0.5 h, 10 µM value is on record for `O=c1c(O)c(-c2ccc(O)c(O)c2)oc2cc(O)cc(O)c12` ? 39
